A collection of sequences and their measured fraction ligated
- System: F1*sub RNA substrate (template-directed ligation)
- experiment notes: fraction ligated after 30 min (ligated reads / total reads); higher = more ligase activity; sequences stand for … in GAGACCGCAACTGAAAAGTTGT…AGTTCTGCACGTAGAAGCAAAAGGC
- experimental parameters: 42 °C
Give the value as a plain number.

Before answering, review these 3 worked examples.
{"columns": ["query sequence", "assay system", "assay endpoint", "test value"],
 "data": [
  ["TTCACTGTCGTAAGAACTTTGGATGGGTTGA [3d345]", "F1*sub RNA substrate (template-directed ligation)", "fraction ligated", 0.788],
  ["TAACTTGTCGTAAGACACTTTGGTGGGTTGA [3d523]", "F1*sub RNA substrate (template-directed ligation)", "fraction ligated", 0.0256],
  ["TATCACTGTGTAAGACCTTTGGATGGGTTGA [3d1349]", "F1*sub RNA substrate (template-directed ligation)", "fraction ligated", 0.889]
]}

In: Which fraction ligated is listed for TATCACTTGTGTAAGACATTTGATGGGTTGA [3d1780] ?
Out: 0.494

----------
- Test system: F1*sub RNA substrate (template-directed ligation)
- experiment notes: fraction ligated after 30 min (ligated reads / total reads); higher = more ligase activity; sequences stand for … in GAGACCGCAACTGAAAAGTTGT…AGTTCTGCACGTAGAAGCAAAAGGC
- experimental parameters: 42 °C
Param threshold (0.7) applies to fraction ligated; output true (1) when value >= threshold, false (0) when value < threshold.

{"columns": ["query sequence", "category"],
 "data": [
  ["TATCACTTGTGAAGCACTTTGGATGGGTTGA [3d1720]", "true (1)"]
]}

In: Given TATACTTGTGTAAGACACTTTGGATGGGTTGA [2d74] , state whether its fraction ligated is at least 0.7.
Out: true (1)

In: Reported fraction ligated reaches at least 0.7 for TATACTTGCGTAAGCACTTTGGATGGGTTGA [3d817] ?
Out: true (1)

In: Does the reported fraction ligated for TATCACTTGTCGTAAGACACTTTGTGGTTGA [3d2261] fall at or above the 0.7 mark?
Out: false (0)

In: Does the sequence TACACTTTCGTAAACACTTTGGATGGGTTGA [3d589] have recorded fraction ligated that is 0.7 or more?
Out: false (0)

In: Check if fraction ligated >= 0.7 (inclusive). Item: TATCATTGTGTAAGACACTTTGGAGGGTTGA [3d1183]
Out: false (0)

In: Determine whether measured fraction ligated meets or exceeds 0.7 for TATCACTTTCGTAGACACTTTGGATGGGTTGA [2d150]
Out: true (1)

----------
- Tested on: F1*sub RNA substrate (template-directed ligation)
- experiment notes: fraction ligated after 30 min (ligated reads / total reads); higher = more ligase activity; sequences stand for … in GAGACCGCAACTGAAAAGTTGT…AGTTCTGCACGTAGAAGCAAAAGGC
- experimental parameters: 42 °C
Think of 0.8 as a floor: if fraction ligated stands on it or above, it is rule met; beneath it, rule not met.

{"columns": ["query sequence", "category"],
 "data": [
  ["TATACTTGTCGTAGACCTTTGGATGGGTTGA [3d874]", "rule not met"]
]}

In: Entry TATCACTTGTCGTAAGACCTTGATGGGTTGA [3d2184] : is its fraction ligated no less than 0.8?
Out: rule not met

In: Assess whether reported fraction ligated for TTCACTTGTCGTAAGACATTTGGATGGTTGA [3d481] sits at 0.8 or higher.
Out: rule not met

In: # bool: fraction ligated of TATCACTTGCGTAAGACATTTGGATGGTTGA [3d1678] >= 0.8
Out: rule not met

In: Could you verify whether the entry TATCACTTTCGTAAGACACTTTGGAGGGTTA [3d1579] shows fraction ligated of no less than 0.8?
Out: rule not met

In: Is fraction ligated for TATCACTTGTCTAAGACCTTTGGATGGGTTG [3d1870] at or above 0.8?
Out: rule not met

----------
- Test system: F1*sub RNA substrate (template-directed ligation)
- experiment notes: fraction ligated after 30 min (ligated reads / total reads); higher = more ligase activity; sequences stand for … in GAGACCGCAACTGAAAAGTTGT…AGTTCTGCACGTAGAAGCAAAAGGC
- experimental parameters: 42 °C
# label = t if fraction ligated >= 0.8 else f

In: Hi, just wondering whether TATACTGTCGTAAGACATTTGGATGGGTTGA [3d788] shows fraction ligated of 0.8 or higher.
Out: f

In: Decide: fraction ligated of ATCACTGTCGTAAACACTTTGGATGGGTTGA [3d112] >= 0.8?
Out: f

In: Threshold query (fraction ligated >= 0.8) on TACACTTTCGTAAGACATTTGGATGGGTTGA [3d593]
Out: f

In: Please check the record TATCATTGTCGTAAACACTTTGGTGGGTTGA [3d1232] and state if its fraction ligated is at or above 0.8.
Out: f

In: State whether the measured fraction ligated reaches 0.8, counting equality as reaching it, for TATCACTGTGTAAGACACTTTGGATGGGTTGA [2d131]
Out: t

In: Item TATCACTTGTGTAGCACTTTGGATGGGTTGA [3d1733] with fraction ligated of 0.8 or above?
Out: t

In: Determine whether this sequence has fraction ligated no lower than 0.8: TATACTTGCGTAAGACACTTTGGAGGGTTGA [3d824]
Out: f

In: Please tell me: is the sequence TATCACTTTCGTAAGACCTTTGGATGGGTTG [3d1553] at or over 0.8 in terms of fraction ligated?
Out: f

In: // inclusive: fraction ligated at least 0.8? input: TATCACTTGTCGTAAGACACTTTGTGGGTTG [3d2263]
Out: f

In: For this sequence, is measured fraction ligated 0.8 or higher? TATCACTTGTCGAAACACTTTGGTGGGTTGA [3d1920]
Out: f

In: Please indicate if the recorded fraction ligated for TATCCTTGTCGTAAGACACTTGATGGGTTGA [3d1098] meets or exceeds 0.8.
Out: f

----------
- Tested on: F1*sub RNA substrate (template-directed ligation)
- experiment notes: fraction ligated after 30 min (ligated reads / total reads); higher = more ligase activity; sequences stand for … in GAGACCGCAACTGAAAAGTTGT…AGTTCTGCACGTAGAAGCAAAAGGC
- experimental parameters: 42 °C
Reported fraction ligated values are given for each entry in this list.

Worked cases, answers included:
{"columns": ["query sequence", "fraction ligated"],
 "data": [
  ["TATCACTTGTGAAACACTTTGGATGGGTTGA [3d1719]", 0.842],
  ["TATCACTTGTCGTAAACACTTGATGGGTTGA [3d2082]", 0.727],
  ["TATACTTGTCGTAAGACACTTTGGTGGGTTGA [2d85]", 0.0569],
  ["TATCACTTGTCGTAAGCCTTTGATGGGTTGA [3d2115]", 0.718]
]}

Next item in the queue.
In: Which fraction ligated is reported with F1*sub RNA substrate (template-directed ligation) for this entry: TATCACTTTGTAGACACTTTGGATGGGTTGA [3d1466] ?
Out: 0.843

----------
- Test system: F1*sub RNA substrate (template-directed ligation)
- experiment notes: fraction ligated after 30 min (ligated reads / total reads); higher = more ligase activity; sequences stand for … in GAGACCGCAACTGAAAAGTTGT…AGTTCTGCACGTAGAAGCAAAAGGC
- experimental parameters: 42 °C
assay endpoint: fraction ligated
// response body must contain only the number

Please review the entries below; each comes with its answer.
{"columns": ["query sequence", "assay endpoint", "test value"],
 "data": [
  ["ATCACTTGTCGTAAGACACTTTGATGGTTGA [3d263]", "fraction ligated", 0.0782],
  ["TATCACTTCGTAAGAACTTTGGATGGGTTGA [3d1317]", "fraction ligated", 0.868],
  ["TTCATTGTCGAAGACACTTTGGATGGGTTGA [3d322]", "fraction ligated", 0.197]
]}

In: // query fraction ligated value for entry TATCACTTGTCGAAGACACTTTGGGGGTTGA [3d1970]
Out: 0.133

In: Given the sequence TACCTTTCGTAAGACACTTTGGATGGGTTGA [3d529] , what is its reported fraction ligated?
Out: 0.435

In: Fill in the blank: the reported fraction ligated of TATCCTTGGTAAGACACTTTGGATGGGTTGA [3d984] is ____.
Out: 0.796

In: Can you share its fraction ligated? I mean this sequence: TTACTTGTCGTAAGACCTTTGGATGGGTTGA [3d289]
Out: 0.229

In: # get_value(readout='fraction ligated', item= TATCACTTGCGTAAGACACTTTGGATGGTTGA [2d176] )
Out: 0.324

In: Could you share which fraction ligated value was measured for TACACTTGTCGTAAGACATTTGGTGGGTTGA [3d709] ?
Out: 0.0505

In: What does the record list as fraction ligated for TATCACTTTCGTAGAACTTTGGATGGGTTGA [3d1509] ?
Out: 0.875

In: Form field: reported fraction ligated of TATCACTGTCGTAAGACCTTTGGAGGGTTGA [3d1429]
Out: 0.133

In: Data request, read-out fraction ligated, for TACACTTGCGTAAGACACTTTGGTGGGTTGA [3d612]
Out: 0.0235

In: Name the reported fraction ligated value associated with the sequence ATCACTTGTCGTAAGACACTTTGAGGGTTGA [3d262]
Out: 0.0273

In: fraction ligated for TATCACGTCGTAAGACACTTGGATGGGTTGA [3d1304] ?
Out: 0.81

In: # fraction ligated lookup, item TATCATTGTCGTAAGACACTTGGATGGTTGA [3d1273]
Out: 0.395

In: May I ask what fraction ligated has been recorded for TATCCTTTCGTAAGACACTTTGGATGGGTTG [3d983] ?
Out: 0.766

In: I'd like to know its fraction ligated. The sequence in question is TATCACTTGTCTAAGACACTTTGATGGTTGA [3d1888]
Out: 0.0589

In: Which fraction ligated value is on record for TATCATTGCGAAGACACTTTGGATGGGTTGA [3d1158] ?
Out: 0.8

In: I'd like to know its fraction ligated. The sequence in question is TTCACTTTCGTAAACACTTTGGATGGGTTGA [3d359]
Out: 0.0493

In: Dear colleague, I am looking for the recorded fraction ligated of the following sequence: TATCACTTGTGAAGACACTTTGGAGGGTTGA [3d1727]
Out: 0.0789

In: Requested read-out: fraction ligated. Entry: TATCACGTCGTAAGACACTTTGGAGGGTTGA [3d1307]
Out: 0.104

In: // fraction ligated lookup, key: ATCACTTTCGTAAGACACTTTGGTGGGTTGA [3d135]
Out: 0.00882

Values were extracted from the supplement of paper PMC6755084.
